- Tested target: human full-length VWF (human, UniProt P04275 764-2813)
- Assay info: SPR, Biacore T200, antibody captured on Protein A, full-length VWF as analyte, single-cycle kinetics
Quantity: koff (s⁻¹)
Report as a plain number; the unit s⁻¹ is understood.

Sample records with koff:
Binder | koff [s⁻¹]
4-H3_H8_L0 (antibody, human IgG1, kappa, V domains shown, humanised, human IgG1 kappa) VH: QQLVESGGGVVQPGRSLRLSCAASGIDLTSNAMNWVRQAPGKGLEWIGGIYGHDTSYYAAWAKGRFTISRDSNTVYLQMNSLRAEDTATYFCARGFIYFDIWGQGTLVTVSS VL: DIQMTQSPSSLSASVGDRVTITCLASEDIASGISWYQQKPGKAPKLLIYGASNLESGVPSRFSGSGSGTDFTLTISSLQPEDFATYYCLGGYSFSSNGLTFGGGTKVEIKT | 5.66e-07
1-A2_H0_L1 (antibody, human IgG1, kappa, V domains shown, humanised, human IgG1 kappa) VH: QVQLVESGGGVVQPGRSLRLSCAASGFTFSSNAMNWVRQAPGKGLEWVAGIYGHDTSYYAAWAKGRFTISRDNSKNTLYLQMNSLRAEDTAVYYCARGFIYFDIWGQGTLVTVSS VL: DIQMTQSPSSLSASVGDRVTITCLASEDIYSGISWYQQKPGKAPKLLIYGASNLESGVPSRFSGSGSGTDYTLTISSLQPEDFATYYCLGGHSHSTTDLTFGGGTKVEIKT | 2.73e-06

Query block: Need koff, item 1-A2_H0_VL-par (antibody, human IgG1, kappa, V domains shown, also called 1-A2_H0 (hIgG1)) VH: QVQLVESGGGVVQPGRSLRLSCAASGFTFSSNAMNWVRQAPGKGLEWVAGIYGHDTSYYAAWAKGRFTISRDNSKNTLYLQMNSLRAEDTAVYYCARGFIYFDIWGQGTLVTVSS VL: AIEMTQTPPSLSASVGETVRIRCLASEDIYSGISWYQQKPGKPPTLLIYGASNLESGVPPRFSGSGSGTDYTLTIGGVQAEDAATYYCLGGHSHSTTDLTFGAGTKVEIKT
Result block: 6.18e-07

Just for reference, patent US20240228660A1 is where these values come from.
